src = PubChem BioAssay (NCI)

ASSAY_REMARKS: NCI Yeast Anticancer Drug Screen. Data for the mgt1 strain (AID 153)
MEASUREMENT_CONDITIONS: S. cerevisiae mgt1 mutant growth inhibition; at 1.2 µM; active compounds read high
Compounds without any hit were thinned out: in the full panel of roughly 79,000, 15% have a hit.
OUTCOME_MEASURE: growth inhibition (%)
State just the number; it will be interpreted in %.

See these solved cases before continuing.
                                   compound  unit_name  val
0        CC1=C(SCc2ccccc2)C(=O)c2ccccc2C1=O          %  -74
1  COc1ccc(C(=O)c2ccccc2C(=O)c2ccccc2OC)cc1          %   -1
2     CCCCOP(=O)(CCCP(=O)(OCCCC)OCCCC)OCCCC          %   -3
3                  Cc1ccccc1N=C(NO)c1ccccc1          %    0
4             Brc1ccccc1-c1ncc(-c2ccccc2)o1          %   15

Consider now this further compound.
Request: Return growth inhibition for the following compound: Cc1ccc(CC2(OCCN(C)C)CCC(C(C)(C)C)CC2)cc1 (stereo unspecified)
Result: 14

* * *

# reported growth inhibition; entries follow
ASSAY_REMARKS: NCI Yeast Anticancer Drug Screen. Data for the rad18 strain (AID 177)
MEASUREMENT_CONDITIONS: S. cerevisiae rad18 mutant growth inhibition; at 1.2 µM; active compounds read high
About 79,000 compounds went through this panel and 15% of them were active in at least one assay; those are over-represented in the sample as a whole.
State just the number; it will be interpreted in %.

>>> print(df.to_string())
                                   compound  val
0             C/C=C/SC(=Nc1ccccc1)Nc1ccccc1   -2
1        CCCCc1nnc(NS(=O)(=O)c2ccc(C)cc2)s1  -12
2  CC[n+]1oc(C(=O)c2ccc(Cl)cc2)c(-c2ccccc2)c1-c1ccccc1.[Cl][Fe]([Cl])([Cl])[Cl]    4
3  NC(N)=NS(=O)(=O)c1ccc(Nc2c3ccccc3nc3c(C(=O)NCCO)cccc23)cc1   -1
4                   CCOC(=N)c1ccc(O)c(OC)c1   -1

Request: Return growth inhibition for the following compound: `CN(C)CCNc1ccc2ncnc3c2c1C(=O)c1ccccc1-3`
Result: 11

Request: Return growth inhibition for the following compound: `COc1ccc(C(=O)C(CN(C)C)CN(C)C)cc1`
Result: -3

Request: Return growth inhibition for the following compound: CC1CC[C@]2(C(=O)O)CCC3(C)C(=CC(=O)C4[C@@]5(C)CCC(=O)C(C)(C)C5CC[C@]43C)[C@@H]2[C@H]1C (stereo not given in full)
Result: 15

Request: Return growth inhibition for the following compound: CCCOC(=O)C(F)C(Br)C(=O)OCCC (stereo not given)
Result: 59

Request: Return growth inhibition for the following compound: Cc1c2cccc(Sc3ccccc3)c2c2c3c(cccc13)[S+](c1ccccc1)C2 (stereo not given)
Result: 28

* * *

ASSAY_REMARKS: NCI Yeast Anticancer Drug Screen. Data for the rad14 strain (AID 159);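 note: 0% = growth of vehicle-treated control cultures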
MEASUREMENT_CONDITIONS: S. cerevisiae rad14 strain growth inhibition; at 11.0 µM; active compounds read high
About 79,000 compounds went through this panel and 15% of them were active in at least one assay; those are over-represented in the sample as a whole.
OUTCOME_MEASURE: growth inhibition (%)
State just the number; it will be interpreted in %.

See these solved cases before continuing.
                                   compound    outcome_measure  val
0  COC(=O)C1=C(C(=O)OC)C(C(=O)OC)C(C(=O)OC)C(C(=O)OC)(C(=O)OC)C(C(=O)OC)=C1C(=O)OC (stereo not given)  growth inhibition  -11
1          N#CC(C#N)=NNc1ccc(S(=O)(=O)O)cc1  growth inhibition    3
2  COc1oc(C(=O)NC2CCCCC2)c(-c2ccc(Cl)cc2)c1S(=O)(=O)c1ccccc1  growth inhibition   23
3  CC(C)(C)CC(C)(C)c1cc(O)c(O)c(CN2CCCCC2)c1  growth inhibition   10

Consider now this further compound.
Request: Return growth inhibition for the following compound: CCCCCCCCCCCCCCCCOP(=O)(O)OCC(N)C(=O)O (stereo not given)
Result: 59
